Attribution: paper PMC9420430

- testSystem: HLA-A*02:01 (Homo sapiens, UniProt P04439, D140Y/D185E/D98H/E176V/E277Q/G131W/G231S/I119V/I121R/I166T/I218V/L300P/L318F/N151K/N90K/P208A/P217A/Q86G/Q94H/R138H/R169H/T345S)
- Assay type: binding
- conditionSet: NA9 for NV9-FITC on A2, 25 °C
measuredQuantity: peptide exchange (in words)

Prompt: Consider the compound `CCCO` and give its measured peptide exchange (in words).
Completion: ineffective

Prompt: Consider the compound CCC(C)O (centres unmarked) and give its measured peptide exchange (in words).
Completion: ineffective

Prompt: Consider the compound `CO` and give its measured peptide exchange (in words).
Completion: 20% methanol was only slightly slower
